Biological target: Glucagon-like peptide 1 receptor (Homo sapiens) (UniProt P43220)
Sequence (P43220 whole entry, looked up): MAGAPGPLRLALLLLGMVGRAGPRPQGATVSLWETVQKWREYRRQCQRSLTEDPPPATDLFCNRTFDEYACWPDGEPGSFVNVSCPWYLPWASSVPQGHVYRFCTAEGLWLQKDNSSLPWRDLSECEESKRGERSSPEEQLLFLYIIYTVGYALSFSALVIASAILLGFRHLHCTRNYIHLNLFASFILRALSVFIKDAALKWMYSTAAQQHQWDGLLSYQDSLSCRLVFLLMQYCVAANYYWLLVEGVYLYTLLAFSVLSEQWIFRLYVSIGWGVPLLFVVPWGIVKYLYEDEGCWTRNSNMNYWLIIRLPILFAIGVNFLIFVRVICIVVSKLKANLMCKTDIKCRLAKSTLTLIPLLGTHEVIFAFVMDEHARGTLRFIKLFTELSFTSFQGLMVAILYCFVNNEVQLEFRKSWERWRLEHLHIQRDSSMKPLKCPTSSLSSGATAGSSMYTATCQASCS
Test: qHTS of GLP-1 Receptor Inverse Agonists (Inhibition Mode); further: nearly all actives have a fitted effect of over 55% in size
Conditions: HEK293 GLP-1R CRE-luciferase, luminescence, 24 h, GLP-1R form is constitutively active; series mostly up to 38.3 µM
Experimental: The overall goal of this project was to develop a novel assay for discovering small molecule ligands for class B1 G protein-coupled receptors (GPCRs). […] The assay was developed using a cell-based functional readout. […] Six ul of cell suspension (200 cells/uL in DMEM + 10% Nu serum + 1% pen-strep) is dispensed in a white solid 1536-well plate. […] A luminescence read is obtained on the PerkinElmer Viewlux after 12 min incubation at room temperature.
Hit rate of the full screen: of about 410,000 compounds, about 6,400 (1.6%) were called active. Roughly 20% stayed inconclusive and do not appear here. The call rests on the fitted dose curve; in most records, active means well fitted inhibition curve with a large enough effect; inconclusive means small, poorly fitted or top-dose-only effect; inactive means no such curve, though single readings can be large or run the other way. This is one part of a sample in which actives are shown more often than they occur.
Outcomes: YES (active), NO (inactive)

>  <COMPOUND>
O=C(OCc1cn([C@@H]2C[C@H](c3ccc(Cl)cc3)N(Cc3cccs3)C[C@H]2O)nn1)c1ccccc1

>  <SUBJECT_OF_TEST>
Glucagon-like peptide 1 receptor (Homo sapiens) (UniProt P43220)

>  <GROUP_LABEL>
NO

$$$$
>  <COMPOUND>
Cc1cccc(CN2CCN(C3CN(Cc4cn(Cc5cc(C)cc(C)c5)nn4)S(=O)(=O)C3)CC2)c1 (stereo not given)

>  <SUBJECT_OF_TEST>
Glucagon-like peptide 1 receptor (Homo sapiens) (UniProt P43220)

>  <GROUP_LABEL>
NO

$$$$
>  <COMPOUND>
O=S(=O)(Cc1ccc(Cl)cc1Cl)c1ccc(Cl)cc1

>  <SUBJECT_OF_TEST>
Glucagon-like peptide 1 receptor (Homo sapiens) (UniProt P43220)

>  <GROUP_LABEL>
YES

$$$$
>  <COMPOUND>
O=C(Nc1cccc(Cc2ccccc2)c1)Nc1ccc2nc([C@@H]3O[C@H](CO)[C@@H](O)[C@H](O)[C@H]3O)[nH]c2c1

>  <SUBJECT_OF_TEST>
Glucagon-like peptide 1 receptor (Homo sapiens) (UniProt P43220)

>  <GROUP_LABEL>
NO

$$$$
>  <COMPOUND>
CCN(CC(=O)Nc1cc(Cl)ccc1C)C(=O)Cn1c(=O)cnc2ccccc21

>  <SUBJECT_OF_TEST>
Glucagon-like peptide 1 receptor (Homo sapiens) (UniProt P43220)

>  <GROUP_LABEL>
NO

$$$$
>  <COMPOUND>
Nc1nc2ncccn2c1-c1ccccc1

>  <SUBJECT_OF_TEST>
Glucagon-like peptide 1 receptor (Homo sapiens) (UniProt P43220)

>  <GROUP_LABEL>
NO

$$$$
>  <COMPOUND>
O=C(NC1CCCC1)C1c2ccccc2OCC(=O)N1Cc1ccccc1 (stereo not given)

>  <SUBJECT_OF_TEST>
Glucagon-like peptide 1 receptor (Homo sapiens) (UniProt P43220)

>  <GROUP_LABEL>
NO

$$$$
>  <COMPOUND>
Cc1ccc(-c2nc3c(Cl)cc(C(F)(F)F)cn3c2Cc2cccc(Cl)c2)cc1

>  <SUBJECT_OF_TEST>
Glucagon-like peptide 1 receptor (Homo sapiens) (UniProt P43220)

>  <GROUP_LABEL>
NO

$$$$
>  <COMPOUND>
COCCCNC(=O)c1cccc2c(-c3ccc(O)c(OC)c3)coc12

>  <SUBJECT_OF_TEST>
Glucagon-like peptide 1 receptor (Homo sapiens) (UniProt P43220)

>  <GROUP_LABEL>
NO

$$$$
>  <COMPOUND>
NNC(=O)c1ccc(Cl)cc1Cl

>  <SUBJECT_OF_TEST>
Glucagon-like peptide 1 receptor (Homo sapiens) (UniProt P43220)

>  <GROUP_LABEL>
NO

$$$$

###

Biological target: Glucagon-like peptide 1 receptor (Homo sapiens)
Assay: qHTS of GLP-1 Receptor Inverse Agonists (Inhibition Mode); further: nearly all actives have a fitted effect of over 55% in size; further: potency means the concentration at half of the fitted maximal effect
Details: HEK293 GLP-1R CRE-luciferase, luminescence, 24 h, GLP-1R form is constitutively active; series mostly up to 38.3 µM
The campaign covered roughly 410,000 compounds. About 6,400 (1.6%) were called active. Another 20% or so got no clear call; they are omitted. Only a selection was taken, and actives are over-represented in it overall.
METRIC: Potency

>  <COMPOUND>
CC1(C(=O)NS(=O)(=O)c2cccc(F)c2)CCN1C(=O)Cc1cc(F)ccc1F (stereo not given)

>  <SUBJECT_OF_TEST>
Glucagon-like peptide 1 receptor (Homo sapiens)

>  <RESULT>
inactive

$$$$
>  <COMPOUND>
CC1(C)CC(=O)C=C(c2ccccc2CO)C1=O

>  <SUBJECT_OF_TEST>
Glucagon-like peptide 1 receptor (Homo sapiens)

>  <RESULT>
inactive

$$$$
>  <COMPOUND>
CCc1ccc(OCC(=O)NCC(c2ccc(Cl)cc2)N2CCCCC2)cc1 (stereo not given)

>  <SUBJECT_OF_TEST>
Glucagon-like peptide 1 receptor (Homo sapiens)

>  <RESULT>
8.91 µM (active)

$$$$
>  <COMPOUND>
CC(=O)c1cccc(-c2cnc3c(NC=O)cc(-c4ccc(N5CCN(C)CC5)cc4)cn23)c1

>  <SUBJECT_OF_TEST>
Glucagon-like peptide 1 receptor (Homo sapiens)

>  <RESULT>
inactive

$$$$
>  <COMPOUND>
CCN(CC)P(=O)(Nc1ccc(SC(F)F)cc1)c1ccc(N(C)C)cc1NC(=O)c1ccco1 (stereo not given)

>  <SUBJECT_OF_TEST>
Glucagon-like peptide 1 receptor (Homo sapiens)

>  <RESULT>
2.51 µM (active)

$$$$
>  <COMPOUND>
CC(C)CNC(=O)C1(C)CCCN1C(=O)CSc1ccccc1 (stereo not given)

>  <SUBJECT_OF_TEST>
Glucagon-like peptide 1 receptor (Homo sapiens)

>  <RESULT>
inactive

$$$$
>  <COMPOUND>
CC(C)(C)C(=O)COC(=O)c1cc(S(=O)(=O)N2CCCCC2)ccc1N1CCOCC1

>  <SUBJECT_OF_TEST>
Glucagon-like peptide 1 receptor (Homo sapiens)

>  <RESULT>
inactive

$$$$
>  <COMPOUND>
COc1ccc(C(CNC(=O)COc2ccccc2OC)N2CCCCC2)cc1 (stereo not given)

>  <SUBJECT_OF_TEST>
Glucagon-like peptide 1 receptor (Homo sapiens)

>  <RESULT>
inactive

$$$$
>  <COMPOUND>
C[C@H]1CN(c2ccc(Br)cc2)C(=O)[C@@H]1CC(=O)Nc1ccc(Br)cc1

>  <SUBJECT_OF_TEST>
Glucagon-like peptide 1 receptor (Homo sapiens)

>  <RESULT>
inactive

$$$$
>  <COMPOUND>
Cc1cc(NC(=O)c2ccc(F)cc2)ccc1NC(=O)c1ccco1

>  <SUBJECT_OF_TEST>
Glucagon-like peptide 1 receptor (Homo sapiens)

>  <RESULT>
inactive

$$$$

###

Target: Glucagon-like peptide 1 receptor (Homo sapiens) (UniProt P43220)
Assay: qHTS of GLP-1 Receptor Inverse Agonists (Inhibition Mode); further: nearly all actives have a fitted effect of over 55% in size; further: potency means the concentration at half of the fitted maximal effect
Conditions: HEK293 GLP-1R CRE-luciferase, luminescence, 24 h, GLP-1R form is constitutively active; series mostly up to 38.3 µM
Screen size: about 410,000 compounds; about 6,400 (1.6%) were called active. Another 20% or so got no clear call; they are omitted. The sample as a whole holds a higher share of actives than the screen did.
METRIC: Potency

>  <MOLECULE>
COc1ccc(-c2nn(-c3ccccc3)cc2/C=C\C(=O)Nc2ccc(C(=O)O)cc2)cc1

>  <SUBJECT_OF_TEST>
Glucagon-like peptide 1 receptor (Homo sapiens) (UniProt P43220)

>  <RESULT>
inactive

$$$$
>  <MOLECULE>
Nc1cc(=O)c2[nH]cnc2[nH]1

>  <SUBJECT_OF_TEST>
Glucagon-like peptide 1 receptor (Homo sapiens) (UniProt P43220)

>  <RESULT>
inactive

$$$$
>  <MOLECULE>
CSc1ccc(CN2CCC2(C)C(=O)Nc2ccc(C)c(O)c2)cc1 (stereo not given)

>  <SUBJECT_OF_TEST>
Glucagon-like peptide 1 receptor (Homo sapiens) (UniProt P43220)

>  <RESULT>
inactive

$$$$
>  <MOLECULE>
CC(=O)Nc1cccc(-c2cc3nc(NCc4cccnc4)n(C)c(=O)c3s2)c1

>  <SUBJECT_OF_TEST>
Glucagon-like peptide 1 receptor (Homo sapiens) (UniProt P43220)

>  <RESULT>
inactive

$$$$
>  <MOLECULE>
CCn1c(SCC(=O)NC2CCCC2)nnc1-c1ccoc1C

>  <SUBJECT_OF_TEST>
Glucagon-like peptide 1 receptor (Homo sapiens) (UniProt P43220)

>  <RESULT>
inactive

$$$$
>  <MOLECULE>
Cc1cccc(C)c1NC(=O)C(c1cccc2ccccc12)n1c(=O)c(-c2ccco2)nc2ccccc21 (stereo not given)

>  <SUBJECT_OF_TEST>
Glucagon-like peptide 1 receptor (Homo sapiens) (UniProt P43220)

>  <RESULT>
inactive

$$$$
>  <MOLECULE>
Cc1ccccc1S(=O)(=O)NC(=O)C1(C)CCN1C(=O)Cc1ccc(Cl)cc1Cl (stereo not given)

>  <SUBJECT_OF_TEST>
Glucagon-like peptide 1 receptor (Homo sapiens) (UniProt P43220)

>  <RESULT>
inactive

$$$$
>  <MOLECULE>
Cc1ccc(-c2nn(-c3ccccc3)cc2/C=C/C(=O)Nc2cccc(S(N)(=O)=O)c2)cc1

>  <SUBJECT_OF_TEST>
Glucagon-like peptide 1 receptor (Homo sapiens) (UniProt P43220)

>  <RESULT>
5.01 µM (active)

$$$$
>  <MOLECULE>
CC(C)(C)c1ccc(S(=O)(=O)NC(=O)C2(C)CCN2C(=O)CC2CC2)cc1 (stereo not given)

>  <SUBJECT_OF_TEST>
Glucagon-like peptide 1 receptor (Homo sapiens) (UniProt P43220)

>  <RESULT>
inactive

$$$$
>  <MOLECULE>
COc1ccccc1NC(=O)CSc1nnc(-c2ccoc2C)n1CCc1ccccc1

>  <SUBJECT_OF_TEST>
Glucagon-like peptide 1 receptor (Homo sapiens) (UniProt P43220)

>  <RESULT>
7.94 µM (active)

$$$$
